test summary: Toxicity liver stage against HepG2, at 10uM
Assay type: cell-based
Design: test concentration 10 uM, cell line HepG2-A16-CD81EGFP
experimental parameters: human, HepG2-A16-CD81EGFP cells; read-out: INHIBITION
Exercise: state measured cytotoxicity at 10 µM for each of the compounds provided.
Quick note: give the figure in %, leave out the unit.

So what does the record say about cytotoxicity at 10 µM for CN1CCOC(C(=O)N2CCCC(C)(C)CC2)C1 (stereo not drawn) ? 6.67

So what does the record say about cytotoxicity at 10 µM for C[C@@H]1CN(Cc2ccco2)CCN1C(=O)Cc1ccccc1F ? 4.94

So what does the record say about cytotoxicity at 10 µM for CC(=O)NCC1CCN(c2ccnc3ccc(Br)cc23)CC1 ? 14.2

So what does the record say about cytotoxicity at 10 µM for CCC(O)CN1CCN(C(=O)c2ccn(C)c(=O)c2)CC1 (stereo not drawn) ? -10

So what does the record say about cytotoxicity at 10 µM for CCn1cnnc1C1CCN(C(=O)c2ccccc2OC)CC1 ? -8.62

So what does the record say about cytotoxicity at 10 µM for Cc1ccc(C)c(CN2C[C@@H]3CC[C@H]2CN(C(=O)c2cccnc2)C3)c1 ? 3.41

So what does the record say about cytotoxicity at 10 µM for Cc1nc(C)n(CC2CCCN(Cc3nc(C4CC4)no3)C2)n1 (stereo not drawn) ? -7.76

So what does the record say about cytotoxicity at 10 µM for O=C(COc1ccc(Cl)cc1)Nc1cnc(N2CCOCC2)nc1 ? -8.18

So what does the record say about cytotoxicity at 10 µM for Cc1cc(CN2CCN(C(C)c3nc(C4CC4)no3)CC2)no1 (stereo not drawn) ? 1.35

So what does the record say about cytotoxicity at 10 µM for Cc1cnn(CC2CCN(CC(O)COc3ccccc3)CC2)c1 (stereo not drawn) ? -1.62

So what does the record say about cytotoxicity at 10 µM for CN(C)C(=O)N1CCC(c2nc3ccc(N4CCCC4)cn3n2)CC1 ? 3.16

So what does the record say about cytotoxicity at 10 µM for CC[C@H](C)[C@@H](CO)NC(C)Cc1ccc(C)cc1 (stereo partly drawn) ? -4.48

So what does the record say about cytotoxicity at 10 µM for Cc1noc(CCNS(=O)(=O)N2CCCC2c2ccco2)n1 (stereo not drawn) ? -6.43

So what does the record say about cytotoxicity at 10 µM for Cc1[nH]c2ccccc2c1-c1ccnc(N[C@@H](CO)C(C)C)n1 ? -4.19

So what does the record say about cytotoxicity at 10 µM for Cc1cc(N2CCC(c3n[nH]c4nccnc34)C2)ncn1 (stereo not drawn) ? -22.7

So what does the record say about cytotoxicity at 10 µM for CN1CC(=O)N(c2ccsc2)CC12CCN(S(C)(=O)=O)C2 (stereo not drawn) ? -26.1

So what does the record say about cytotoxicity at 10 µM for Cc1cc(C(=O)N2CCCC(C(=O)c3cccs3)C2)c(=O)[nH]c1C (stereo not drawn) ? -7.01

So what does the record say about cytotoxicity at 10 µM for CCCc1noc(CCCC(=O)N2CCCC2c2cnn(C)c2)n1 (stereo not drawn) ? 6.32

So what does the record say about cytotoxicity at 10 µM for NCC1(c2cccc(C(F)(F)F)c2)CCC1 ? -4.27

So what does the record say about cytotoxicity at 10 µM for CS(=O)(=O)N1CCC(C(=O)Nc2nnc(C(F)(F)F)[nH]2)CC1 ? 9.52

So what does the record say about cytotoxicity at 10 µM for COc1ccccc1N1CCN(C(=O)CCn2ccnc2C)CC1(C)C ? -26.7

So what does the record say about cytotoxicity at 10 µM for COCCN(Cc1cccs1)C(=O)c1ccc(=O)n(C)c1 ? -4.78

So what does the record say about cytotoxicity at 10 µM for CCC(=O)Nc1cccc(OCC(=O)N2C[C@H]3CC[C@H]2C3)c1 ? -2.18

----------
Exercise: state measured cytotoxicity at 10 µM for each of the compounds provided.
test summary: Toxicity liver stage against HepG2, at 10uM
Assay type: cell-based
Parameters: test concentration 10 uM, cell line HepG2-A16-CD81EGFP
experimental parameters: human, HepG2-A16-CD81EGFP cells; read-out: INHIBITION
Quick note: give the figure in %, leave out the unit.

So what does the record say about cytotoxicity at 10 µM for CC(CN1CCC2(CC1)N=C(c1cccnc1)NC2=O)c1ccccc1 (stereo unspecified) ? 4.5

So what does the record say about cytotoxicity at 10 µM for O=C(c1ccon1)N1CCCC(n2cncn2)C1 (stereo unspecified) ? -8.51

So what does the record say about cytotoxicity at 10 µM for c1cnc(N2CCCC(Cc3nccs3)C2)nc1 (stereo unspecified) ? 0.45

So what does the record say about cytotoxicity at 10 µM for O=C(CSc1nnc[nH]1)NCc1cccs1 ? 0.284

So what does the record say about cytotoxicity at 10 µM for Cc1noc(C)c1CN1CCO[C@H]2CN(Cc3ccc(F)cc3)C[C@H]21 ? 1.96

So what does the record say about cytotoxicity at 10 µM for COc1cccc(-n2cc3[nH]c(=O)n(C(C)C)n3c2=O)c1 ? -7.32

So what does the record say about cytotoxicity at 10 µM for COC[C@]12COC[C@H]1CN(Cc1ccc3ccccc3n1)C2 ? 11.9

So what does the record say about cytotoxicity at 10 µM for c1ccc(NCc2cnc3n2CCN(CC2CCOC2)CC3)nc1 (stereo unspecified) ? -76.5

So what does the record say about cytotoxicity at 10 µM for COc1ccccc1C(=O)N1CCC(Oc2ccc(C#N)cn2)CC1 ? 5.54

So what does the record say about cytotoxicity at 10 µM for CCN1CCN(C(=O)c2ccc(OC)nn2)c2ccccc21 ? -1.78

So what does the record say about cytotoxicity at 10 µM for CC(C)c1cc(C(=O)N2CCCC(c3cc(=O)nc4n3CCC4)C2)no1 (stereo unspecified) ? 0.983

So what does the record say about cytotoxicity at 10 µM for NC(=O)CCN1CCC(C(=O)c2cc(F)ccc2F)CC1 ? -4.89

So what does the record say about cytotoxicity at 10 µM for CC(C)C(=O)NC1CCCN(C(=O)c2cc3ccccc3cc2O)C1 (stereo unspecified) ? -4.14

So what does the record say about cytotoxicity at 10 µM for CCO[C@H]1CN(C)C[C@@H]1NC(=O)c1c[nH]nc1C1CCCCC1 ? -5.56

So what does the record say about cytotoxicity at 10 µM for CCn1cncc1CNC(=O)c1ccc(C2CCCN2C(=O)COC)s1 (stereo unspecified) ? 6.48

So what does the record say about cytotoxicity at 10 µM for CCc1sc(-c2nnc(CNCCn3cc(C)cn3)o2)cc1C ? -8.75

So what does the record say about cytotoxicity at 10 µM for CN(C)Cc1cccc(-c2cccnc2C(=O)NCc2ccccn2)c1 ? 5.39

So what does the record say about cytotoxicity at 10 µM for Cc1ccc(CN2CCOCC2)cc1NCc1ccsc1 ? -8.84

So what does the record say about cytotoxicity at 10 µM for Cc1nc(CO[C@H]2CN(C(=O)c3ccc[nH]3)[C@@H]3COC[C@H]23)cs1 ? -110

So what does the record say about cytotoxicity at 10 µM for CCc1noc(C(C)N(C)Cc2cc(Br)ccc2OC)n1 (stereo unspecified) ? -5.04

So what does the record say about cytotoxicity at 10 µM for O=C(NCC(Cc1cccc(F)c1)N1CCCC1=O)c1cnccn1 (stereo unspecified) ? -5.06

So what does the record say about cytotoxicity at 10 µM for NC(=O)CSc1nnc2n1N=CN(c1ccccc1F)C2 ? -3.78

So what does the record say about cytotoxicity at 10 µM for Cc1nc(CN2CCN(C(=O)CCc3nc(C(C)(C)C)no3)CC2)cs1 ? 3.64

So what does the record say about cytotoxicity at 10 µM for CC(C)=CCN1CCNC(=O)C1CC(=O)N1CCc2sccc2C1 (stereo unspecified) ? 0.429

So what does the record say about cytotoxicity at 10 µM for CCOC(=O)c1nc(CN2CCN(C(C)C(=O)NC3CC3)CC2)cs1 (stereo unspecified) ? -2.52

So what does the record say about cytotoxicity at 10 µM for CC(C)C[C@@H]1N[C@H](C(=O)NC(C)C)Cc2c[nH]c3cccc1c23 ? 7.37

So what does the record say about cytotoxicity at 10 µM for COc1cccc(CNc2cc(C)nc(-c3ccncc3)n2)c1OC ? 46.5

So what does the record say about cytotoxicity at 10 µM for Cc1ccsc1C(=O)N1Cc2ccccc2C2(CCN(C)CC2)C1 ? 2.6

So what does the record say about cytotoxicity at 10 µM for CC(C)c1ncc2c(n1)CN(Cc1cccc(OCC(N)=O)c1)CC2 ? -7.44

So what does the record say about cytotoxicity at 10 µM for CCn1c(CC2CCN(C(=O)C3CNCCO3)CC2)nn(C)c1=O (stereo unspecified) ? 2.14

So what does the record say about cytotoxicity at 10 µM for CCc1nnc(CN(C)c2nc(C(C)C)nc3c2cnn3C)o1 ? -9.52

So what does the record say about cytotoxicity at 10 µM for CC(C)C(C)(C#N)NC(=O)Cn1cc(C(N)=O)c(-c2ccccc2)n1 (stereo unspecified) ? -8.82

So what does the record say about cytotoxicity at 10 µM for O=C1NCC2(CCCN(C(=O)c3c[nH]nc3C3CCCCC3)C2)O1 (stereo unspecified) ? 8.72

So what does the record say about cytotoxicity at 10 µM for Cc1cccc(=O)n1CCCNc1nc(N(C)C)nc2c1CCNCC2 ? -10.2

So what does the record say about cytotoxicity at 10 µM for CCNc1cc2c(nn1)CCN(C(=O)C1Cc3ccccc3O1)C2 (stereo unspecified) ? -9.32

So what does the record say about cytotoxicity at 10 µM for Cc1cc2ccccc2n1CCC(=O)NCCCc1nnc(N)s1 ? 19.6

So what does the record say about cytotoxicity at 10 µM for Cc1noc(C(C)C)c1C(=O)NCCCN1CCNCC1 ? -24.7

So what does the record say about cytotoxicity at 10 µM for CCOC(C)c1noc(CN2CCN(CC3CCCC3)CC2)n1 (stereo unspecified) ? -13.2

So what does the record say about cytotoxicity at 10 µM for N#Cc1ccc(NCC(=O)Nc2ccn(Cc3cccnc3)n2)cc1 ? -11.2

So what does the record say about cytotoxicity at 10 µM for Cc1ccc(O)c(C(=O)N2CCOCC2c2c(C)nn(C)c2C)c1 (stereo unspecified) ? -8.53

So what does the record say about cytotoxicity at 10 µM for Cc1ccoc1C(=O)N1CCOCC2(CCN(c3ncccn3)C2)C1 (stereo unspecified) ? -7.23
